experimentalSystem: Gastrin/cholecystokinin type B receptor (Cavia porcellus)
testSummary: In vitro inhibition of binding of [3H]pCCK-8 against Cholecystokinin type B receptor of guinea pig cerebral cortex membranes
pKi: −log10 of the molar value.
# pKi values compiled below
observationType: pKi

>>> quantitativeresult("CN(C)c1cccc(NC(=O)NC2C(=O)N(CCC34C[C@H]5C[C@@H](C3)C[C@@H](C4)C5)c3ccccc3N(c3ccccc3)C2=O)c1 (stereo partly specified)")
7.89
>>> quantitativeresult("O=C(Nc1ccc(Br)cc1)NC1C(=O)N(CC23C[C@H]4C[C@@H](C2)C[C@@H](C3)C4)c2ccccc2N(c2ccccc2)C1=O (stereo partly specified)")
8.85
>>> quantitativeresult("CC(C)(C1CCCC1)N1C(=O)C(NC(=O)Nc2cccc(C3N=NN=N3)c2)C(=O)N(c2ccccc2)c2ccccc21 (stereo unspecified)")
8.82
>>> quantitativeresult("O=C(Nc1cccc(C(=O)OCCN2CCOCC2)c1)NC1C(=O)N(CC23C[C@H]4C[C@@H](C2)C[C@@H](C3)C4)c2ccccc2N(c2ccccc2)C1=O (stereo partly specified)")
9.25
>>> quantitativeresult("CCOC(=O)CCCOc1ccc(NC(=O)NC2C(=O)N(CC34C[C@H]5C[C@@H](C3)C[C@@H](C4)C5)c3ccccc3N(c3ccccc3)C2=O)cc1 (stereo partly specified)")
8.28
>>> quantitativeresult("CCCCN1C(=O)C(NC(=O)Nc2ccccc2)C(=O)N(c2ccccc2)c2ccccc21 (stereo unspecified)")
8.21

Source: BindingDB's records for doi:10.1021/jm990967h
